# composite z-score per record follows
- assay-overview: small-molecule binders of probe aInhba, primary screen, biochemical, small-molecule microarray, 635/667 nm fluorescence (AID 1148);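 note: score merges 667nm spot fluorescence with signal-to-noise for antibody binding to printed compounds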
- test-context: higher = more signal

[
  {
    "molecule": "COc1ccc([Si](C)(C)[C@H]2[C@H](CCn3cc([C@H](O)c4ccccc4)nn3)O[C@@]3(C(=O)N(Cc4cccc(N5CCOC5=O)c4)c4ccccc43)[C@@H]2C)cc1",
    "composite z-score": -0.362
  },
  {
    "molecule": "CC(=O)NCCCC[C@@H]1NC(=O)[C@@H]2C[C@H](C(=O)NCCCCCCNC(=O)CS)[C@H](c3cccc(OCCO)c3)N2C1=O",
    "composite z-score": -0.179
  },
  {
    "molecule": "COCCOC(=O)N1C(=O)[C@@]2(c3cc(C#CCCO)ccc31)[C@H](c1ccc(OCCO)cc1)N1[C@H](c3ccccc3)[C@H](c3ccccc3)OC(=O)[C@H]1[C@@H]2C(=O)N1CCN(c2ncccn2)CC1",
    "composite z-score": 0.0947
  },
  {
    "molecule": "O=C1C2C=CC(C(O)C(c3ccccc3)c3ccccc3)N(n3cnnc3)C2C(=O)N1Cc1ccccc1 (configuration not stated)",
    "composite z-score": 0.057
  },
  {
    "molecule": "C#CCN(CC=C(C)C)[C@H](CO)c1ccccc1",
    "composite z-score": -0.0719
  },
  {
    "molecule": "CN(C)C(=O)[C@]1(Cc2ccccc2N=[N+]=[N-])N=C(c2ccc(OCCCO)cc2)O[C@@H]1c1ccccc1",
    "composite z-score": 0.0928
  },
  {
    "molecule": "COCCOC(=O)N1C(=O)[C@@]2(c3cc(C#Cc4ccc(OC)cc4)ccc31)[C@H](C(=O)N1CCCCCCC1)[C@H]1C(=O)O[C@H](c3ccccc3)[C@H](c3ccccc3)N1[C@@H]2c1ccc(OCCO)cc1",
    "composite z-score": 1.82
  }
]
